- assay_target: T1, P-cadherin-ECD1-3-Fc protein (human P-cadherin-Fc) (human, UniProt P22223 108-440)
- T1 construct: Construct was expressed with signal peptide and pro-peptide (PACE co-transfected to process the propeptide); not shown: hinge and CH2 and CH3 domains of human IgG1
- T1 sequence (P22223 108-440): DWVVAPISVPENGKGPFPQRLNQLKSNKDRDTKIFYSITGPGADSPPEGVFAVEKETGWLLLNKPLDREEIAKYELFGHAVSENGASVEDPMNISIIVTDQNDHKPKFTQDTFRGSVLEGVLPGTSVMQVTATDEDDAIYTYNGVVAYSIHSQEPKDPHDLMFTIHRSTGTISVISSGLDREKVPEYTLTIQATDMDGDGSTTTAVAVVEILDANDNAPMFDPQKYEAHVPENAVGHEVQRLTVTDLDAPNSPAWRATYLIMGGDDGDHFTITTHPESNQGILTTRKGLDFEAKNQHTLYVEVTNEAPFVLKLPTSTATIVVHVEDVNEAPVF
- assay_procedure: phage scFv ELISA, coated P-cadherin-ECD1-3-Fc
endpoint_name: % of binding of Clone #153 to human P-cadherin-Fc (%)
Answers are plain numbers, in %.

Past entries and their recorded results:
Give the measured % of binding of Clone #153 to human P-cadherin-Fc for anti-P-cadherin scFv 153 alanine-mutant H3.7-Ala (scFv, V domains shown, scFv on phage) VH: EVQLVQSGAEVKKPGASVKVSCKASGYTFTSYGISWVRQAPGQGLEWMGWISAYNGNTNYAQKLQGRVTMTTDTSTSTAYMELRSLRSDDTAVYYCATIDTANAAGIWGQGTMVTVSS VL: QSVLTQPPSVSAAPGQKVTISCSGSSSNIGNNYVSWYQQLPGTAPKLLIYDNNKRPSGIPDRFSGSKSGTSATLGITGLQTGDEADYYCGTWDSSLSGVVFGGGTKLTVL
23

Give the measured % of binding of Clone #153 to human P-cadherin-Fc for anti-P-cadherin scFv 153 alanine-mutant H2.11-Ala (scFv, V domains shown, scFv on phage) VH: EVQLVQSGAEVKKPGASVKVSCKASGYTFTSYGISWVRQAPGQGLEWMGWISAYNGNTNAAQKLQGRVTMTTDTSTSTAYMELRSLRSDDTAVYYCATIDTANAFGIWGQGTMVTVSS VL: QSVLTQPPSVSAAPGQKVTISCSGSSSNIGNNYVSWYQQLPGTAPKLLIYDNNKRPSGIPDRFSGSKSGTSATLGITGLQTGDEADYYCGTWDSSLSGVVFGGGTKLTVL
163

Give the measured % of binding of Clone #153 to human P-cadherin-Fc for anti-P-cadherin scFv 153 alanine-mutant H2.10-Ala (scFv, V domains shown, scFv on phage) VH: EVQLVQSGAEVKKPGASVKVSCKASGYTFTSYGISWVRQAPGQGLEWMGWISAYNGNTAYAQKLQGRVTMTTDTSTSTAYMELRSLRSDDTAVYYCATIDTANAFGIWGQGTMVTVSS VL: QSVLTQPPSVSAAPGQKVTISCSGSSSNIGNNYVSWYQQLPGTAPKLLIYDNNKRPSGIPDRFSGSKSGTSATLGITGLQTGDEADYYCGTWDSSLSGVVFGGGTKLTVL
172

Parameter requested: % of binding of Clone #153 to human P-cadherin-Fc. Apply to each item below.
1. anti-P-cadherin scFv 153 alanine-mutant H3.8-Ala (scFv, V domains shown, scFv on phage) VH: EVQLVQSGAEVKKPGASVKVSCKASGYTFTSYGISWVRQAPGQGLEWMGWISAYNGNTNYAQKLQGRVTMTTDTSTSTAYMELRSLRSDDTAVYYCATIDTANAFAIWGQGTMVTVSS VL: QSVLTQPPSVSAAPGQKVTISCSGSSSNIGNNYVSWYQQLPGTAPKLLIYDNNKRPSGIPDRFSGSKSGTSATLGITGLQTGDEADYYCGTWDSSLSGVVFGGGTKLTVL
2. anti-P-cadherin scFv 153 alanine-mutant H2.15-Ala (scFv, V domains shown, scFv on phage) VH: EVQLVQSGAEVKKPGASVKVSCKASGYTFTSYGISWVRQAPGQGLEWMGWISAYNGNTNYAQKAQGRVTMTTDTSTSTAYMELRSLRSDDTAVYYCATIDTANAFGIWGQGTMVTVSS VL: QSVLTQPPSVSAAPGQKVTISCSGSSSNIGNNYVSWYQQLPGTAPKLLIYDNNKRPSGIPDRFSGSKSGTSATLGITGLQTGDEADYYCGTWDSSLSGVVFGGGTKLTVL

1: 103; 2: 101
